biological target: rat orexin 1 receptor (Rattus norvegicus, UniProt P56718); assay: Rat orexin 1 receptor radioligand binding (competitive, [3H]-SB674042, HEK293 cell preparations); conditions: rat orexin 1 receptor, [3H]-SB674042 competition binding; read-out: rOX1 Ki (nm)
endpoint: Ki (nM)
I only need the number, in nM, no unit after it.

Please give the measured Ki for this compound: CCOc1ccc(C)nc1C(=O)N1C2CCC1C(Nc1ccc(Br)cn1)C2 (racemic) [Example 219]
257

----------
Ki values, listed per item
target: human orexin 2 receptor (Homo sapiens (Human)); assay: Human orexin 2 receptor radioligand binding (competitive, [3H]-EMPA, HEK293 cell preparations); details: hOX2 Ki (nm)
I only need the number, in µM, no unit after it.

Please give the measured Ki for this molecule: Cc1ccc(-c2ncccn2)c(C(=O)N2[C@@H]3CC[C@H]2[C@H](COc2ccccn2)C3)n1 (single isomer, unassigned)
0.268

Please give the measured Ki for this molecule: O=C(c1cccc(F)c1-c1ncccn1)N1[C@@H]2CC[C@H]1[C@H](Nc1ccc(C(F)(F)F)cn1)C2
1.1

Please give the measured Ki for this molecule: Cc1ccc(-c2ncco2)c(C(=O)N2C3CCC2C(COc2ccccn2)C3)n1 (racemic)
0.836

Please give the measured Ki for this molecule: Cc1ccc(-n2cccn2)c(C(=O)N2C3CCC2C(COc2ncc(F)cn2)C3)n1 (racemic)
4.6

Please give the measured Ki for this molecule: Cc1ccc(NC2CC3CCC2N3C(=O)c2ccccc2-n2nccn2)nc1 (racemic)
3.1

---
Please give the measured Ki for this molecule: Cc1ccc(C(=O)N2C3CCC2C(COc2cccc(C(F)(F)F)n2)C3)c(-n2nccn2)n1 (racemic)
4.6

Please give the measured Ki for this molecule: O=C(c1cccc(F)c1-c1ncccn1)N1C2CCC1C(Nc1ccc(C(F)(F)F)cn1)C2 (racemic)
1.5

Please give the measured Ki for this molecule: Cc1cc(C)nc(NC2CC3CCC2N3C(=O)c2ccccc2-n2nccn2)n1 (racemic)
0.444

----------
pKi values, listed per item
target: human orexin 2 receptor (Homo sapiens (Human), UniProt O43614); test: Human orexin 2 receptor radioligand binding (competitive, [3H]-EMPA, HEK293 cell preparations); settings: human orexin 2 receptor, [3H]-EMPA competition binding; read-out: hOX2 Ki (nm)
Sequence (O43614 whole entry): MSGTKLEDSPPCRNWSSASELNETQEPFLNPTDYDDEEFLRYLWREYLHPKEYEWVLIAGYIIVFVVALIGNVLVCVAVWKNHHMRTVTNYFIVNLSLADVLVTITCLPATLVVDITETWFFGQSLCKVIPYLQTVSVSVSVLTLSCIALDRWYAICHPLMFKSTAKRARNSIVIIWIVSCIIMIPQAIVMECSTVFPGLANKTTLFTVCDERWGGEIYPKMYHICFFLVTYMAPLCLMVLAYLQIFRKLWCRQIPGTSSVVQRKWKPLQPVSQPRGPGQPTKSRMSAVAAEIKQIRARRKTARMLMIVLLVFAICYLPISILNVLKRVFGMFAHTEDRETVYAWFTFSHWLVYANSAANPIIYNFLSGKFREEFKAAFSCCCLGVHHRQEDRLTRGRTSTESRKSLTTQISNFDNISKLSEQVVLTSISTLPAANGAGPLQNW
Remember the convention: pKi equals -log10 of concentration in molar.

Here are 5 molecules together with their reported answers.
Please give the measured pKi for this molecule: COc1ccc(C(=O)N2C3CCC2C(Nc2ccc(C(F)(F)F)cn2)C3)c(-n2nccn2)c1 (racemic)
5.06

Please give the measured pKi for this molecule: CCOc1ccc2ccccc2c1C(=O)N1C2CCC1C(COc1nc(C)cc(C)n1)C2 (racemic)
7.66

Please give the measured pKi for this molecule: O=C(c1nc2ccccc2cc1-n1nccn1)N1C2CCC1C(COc1ccccn1)C2 (racemic)
5.77

Please give the measured pKi for this molecule: Cc1ccc(-n2nccn2)c(C(=O)N2C3CCC2C(COc2ccncc2)C3)n1 (racemic)
5.14

Please give the measured pKi for this molecule: Cc1cccc(C(=O)N2[C@@H]3CC[C@H]2[C@H](Nc2cnc(C(F)(F)F)cn2)C3)c1-c1ncccn1
6.48

---
Please give the measured pKi for this molecule: O=C(c1cc(F)ccc1-n1nccn1)N1C2CCC1C(COc1cnc3ccccc3n1)C2 (racemic) [Example 37]
6.31

Please give the measured pKi for this molecule: CCOc1ccc(C)nc1C(=O)N1C2CCC1C(Nc1ccc(Br)cn1)C2 (racemic)
5.77

Please give the measured pKi for this molecule: O=C(c1c(F)cccc1-c1ncccn1)N1[C@@H]2CC[C@H]1[C@H](Nc1cnc(C(F)(F)F)cn1)C2
6.25

Please give the measured pKi for this molecule: Cn1cc(C(=O)N2C3CCC2C(COc2ccccn2)C3)c(-c2ccccc2)n1 (racemic)
5.51
